- experiment.description: in vitro
- Assay type: in vitro ADME
- experimental.setup: pH 7.4, pH 7.4; CD 0.01087 M; 310.15 K; read-out: Permeability Coefficient (Papp)
measured.quantity: Papp
Remember to follow the number with its unit.

Lookup result for O=C1S/C(=C\c2ccc(Cl)cc2)C(=O)N1CC(O)CN1CCN(CC(O)(Cn2cncn2)c2ccc(F)cc2F)CC1 (stereo not shown) [R-98] ; measured Papp: 1.19 ×10⁻⁶ cm/s

----------
- experiment.description: Phase solubility study (shake-flask) in buffers with 2-HP-β-CD
- experimental.setup: pH 2, aqueous buffer, thermodynamic from solid, solubility in pure buffer solution, pH 2.0; pure buffer
measured.quantity: solubility at 3 days (µM)
Supply the numeric figure in µM, leaving out any unit text.

Lookup result for O=C1S/C(=C\c2ccc(Cl)cc2)C(=O)N1CC(O)CN1CCN(CC(O)(Cn2cncn2)c2ccc(F)cc2F)CC1 (stereo not shown) ; measured solubility at 3 days: 620

----------
- experiment.description: Phase solubility study (shake-flask) in buffers with 2-HP-β-CD
- experimental.setup: pH 7.4, aqueous buffer, thermodynamic from solid, solubility in pure buffer solution, pH 7.4; pure buffer
measured.quantity: solubility at 3 days
Remember to follow the number with its unit.

Lookup result for O=C1S/C(=C\c2ccc(Cl)cc2)C(=O)N1CC(O)CN1CCN(CC(O)(Cn2cncn2)c2ccc(F)cc2F)CC1 (stereo not shown) ; measured solubility at 3 days: 18 µM
